Origin of values: patent US20220402862A1

Test: pKa measurement of unformulated amine lipid (fluorescence, method of Jayaraman et al.)
Type: physicochemical
Conditions: 100 μM in 0.1 M phosphate buffer, pH 2.0-12.0
assayEndpoint: pKa

Query string: Give a short answer stating reported pKa for CCCCC/C=C\C/C=C\CCCCCCCC(=O)OCC(COC(=O)CCC(OCCCCCCCC)OCCCCCCCC)COC(=O)NCCN1CCCC1 (stereo not drawn) [Compound 100] .
Result string: 7.2

Query string: Fill in reported pKa for this entry: CCCCC/C=C\C/C=C\CCCCCCCC(=O)OCC(COC(=O)CCC(OCCCCCCCC)OCCCCCCCC)COC(=O)NC1CCN(CC)C1 (stereo not drawn) [Compound 41]
Result string: 7.82

Query string: In one line, give reported pKa of the entry CCCCCC/C=C\COC(=O)CCCCCCCC(=O)OCC(COC(=O)CCC(OCCCCCCCCC)OCCCCCCCCC)COC(=O)OCCCN(CC)CC (stereo not drawn) [Compound 83] .
Result string: 6.16

Query string: Input CCCCC/C=C\C/C=C\CCCCCCCC(=O)OCC(COC(=O)CCC(OCCCCCCCC)OCCCCCCCC)COC(=O)NCC1CCN(C)C1 (stereo not drawn) [Compound 43] , output reported pKa.
Result string: 8.6

Query string: Assign pKa to the following record: CCCCCCCCCCOC(=O)CCCCCCCC(=O)OCC(COC(=O)CCCCCC(=O)OC(CCCCCCCC)CCCCCCCC)COC(=O)OCCCN(CC)CC (stereo not drawn) [Compound 76]
Result string: 6.17

Query string: Identify the reported pKa for the following entry. CCCCC/C=C\C/C=C\CCCCCCCC(=O)OCC(COC(=O)CCC(OCCCCCCCC)OCCCCCCCC)COC(=O)NCCN1CCC(O)CC1 (stereo not drawn) [Compound 49]
Result string: 8.4
